Test system: MT2
METHOD_SUMMARY: Toxicity of compound against human MT-2 cell line at the concentration of 50 uM
Format: functional
Rule for this label: Met means Cell death is less than 10%; Not met means Cell death is at least 10%.

Some solved cases for reference:
Query string: API: query returns whether the molecule falls strictly under 10% in Cell death. Query: `COc1c(C(=O)CC(C)C)c(O)c(CC=C(C)C)c2oc(=O)cc(-c3ccccc3)c12`
Result string: Met

Query string: For CCC(C)C(=O)c1c(O)c(CC=C(C)C)c2oc(=O)cc(-c3ccccc3)c2c1O (stereo unspecified) , is the recorded Cell death below the cut-off of 10%?
Result string: Not met

Query string: Dear colleague, could you confirm whether Cell death of `CC(C)C(=O)c1c2c(c3oc(=O)cc(-c4ccccc4)c3c1O)C=CC(C)(C)O2` falls below 10%? Thanks.
Result string: Met

Query string: Does `CC(C)=C(O)Cc1c(O)c(C(=O)CC(C)C)c(O)c2c(-c3ccccc3)cc(=O)oc12` have Cell death strictly under 10%?
Result string: Not met

Query string: Does `CC(C)=CCc1c(O)c(C(=O)C(C)C)c(O)c2c(-c3ccccc3)cc(=O)oc12` have Cell death strictly under 10%?
Result string: Not met

Query string: Would you kindly verify if Cell death of `CC(C)CC(=O)c1c2c(c3oc(=O)cc(-c4ccccc4)c3c1O)C=CC(C)(C)O2` is strictly less than 10%?
Result string: Met

Continuing:
Query string: Does the reported Cell death of `CC(C)=CCc1c(O)c(C(=O)CC(C)C)c(O)c2c(-c3ccccc3)cc(=O)oc12` stay below 10%?
Result string: Not met

Query string: Dear reviewer, please state whether `CC(C)=CCc1c(O)cc(O)c2c(-c3ccccc3)cc(=O)oc12` has Cell death strictly beneath 10%.
Result string: Not met

----------
Measured inhibition at 25 µM values are reported for all entries that follow.
Test system: HeLa
METHOD_SUMMARY: Anti-HIV activity (at 25 uM) against human HeLa-Tat-Luc cells transfected with HIV-1 LTR activated by Tat protein
Assay type: functional
Write it as a number; the unit % goes unstated.

Below: 3 molecules and their reported inhibition at 25 µM.
Query string: Requested read-out inhibition at 25 µM, target or system HeLa, entry `CC(C)=CCc1c(O)c(C(=O)C(C)C)c2oc(=O)cc(-c3ccccc3)c2c1O`
Result string: 36.7

Query string: Query inhibition at 25 µM on HeLa for `CC(C)=C(O)Cc1c(O)c(C(=O)CC(C)C)c(O)c2c(-c3ccccc3)cc(=O)oc12`
Result string: 43.6

Query string: What value of inhibition at 25 µM on HeLa does `CC(C)CC(=O)c1c(O)cc(O)c2c(-c3ccccc3)cc(=O)oc12` have?
Result string: 42

Others:
Query string: Can you look up inhibition at 25 µM on HeLa for `CC(C)C(=O)c1c2c(c3oc(=O)cc(-c4ccccc4)c3c1O)C=CC(C)(C)O2` ?
Result string: 0

Query string: // fetch HeLa inhibition at 25 µM for `CC(C)=CCc1c(O)c(C(=O)C(C)C)c(O)c2c(-c3ccccc3)cc(=O)oc12`
Result string: 11.5

Query string: Param readout = inhibition at 25 µM; param system = HeLa; param query = `CC(C)CC(=O)c1c2c(c3oc(=O)cc(-c4ccccc4)c3c1O)C=CC(C)(C)O2` ; response: value
Result string: 2

----------
EXPERIMENTAL_SYSTEM: Human immunodeficiency virus type 1 reverse transcriptase (Human immunodeficiency virus 1, UniProt Q72547)
METHOD_SUMMARY: Inhibitory concentration against recombinant human immunodeficiency virus 1 reverse transcriptase
List of pIC50 values.
Please keep in mind that pIC50 is minus log10 of the molar concentration; only the number is needed.

Known results for molecules:
Query string: Give its pIC50 value. Item: CC1CN(C2CC(N=[N+]=[N-])[C@@H](CO)C2)C(=O)NC1=O (stereo not given in full)
Result string: 8.00

Query string: Which value of pIC50 has been reported for `CC(C)=CCc1c(O)c(C(=O)C(C)C)c2oc(=O)cc(-c3ccccc3)c2c1O` in the records?
Result string: 4.50

Query string: Name the recorded pIC50 for `CC(C)C(=O)c1c2c(c3oc(=O)cc(-c4ccccc4)c3c1O)C=CC(C)(C)O2` .
Result string: 4.49

Query string: Give the measured pIC50 of `CC(C)=CCc1c(O)cc(O)c2c(-c3ccccc3)cc(=O)oc12` .
Result string: 4.95

# context switch: different molecule, same pIC50
Query string: Can you look up the measured pIC50 of `CC(C)CC(=O)c1c(O)cc(O)c2c(-c3ccccc3)cc(=O)oc12` for me?
Result string: 5.16

----------
Listed here: items and their measured IC50.
EXPERIMENTAL_SYSTEM: Human immunodeficiency virus type 1 reverse transcriptase (Human immunodeficiency virus 1)
METHOD_SUMMARY: Inhibitory concentration against recombinant human immunodeficiency virus 1 reverse transcriptase
Reply with a number, then the unit it belongs to.

See these solved cases before continuing.
Query string: // lookup IC50 | system=Human immunodeficiency virus type 1 reverse transcriptase (Human immunodeficiency virus 1) | key= `CC(C)=C(O)Cc1c(O)c(C(=O)CC(C)C)c(O)c2c(-c3ccccc3)cc(=O)oc12`
Result string: 0.5 µM

Query string: Find the measured IC50: item `COc1c(C(=O)CC(C)C)c(O)c(CC=C(C)C)c2oc(=O)cc(-c3ccccc3)c12` , target or system Human immunodeficiency virus type 1 reverse transcriptase (Human immunodeficiency virus 1).
Result string: 22.2 µM

Continuing:
Query string: Human immunodeficiency virus type 1 reverse transcriptase (Human immunodeficiency virus 1) / IC50 / `CC(C)=CCc1c(O)c(C(=O)C(C)C)c(O)c2c(-c3ccccc3)cc(=O)oc12` : value?
Result string: 2.5 µM

Query string: API: value(readout= IC50, system= Human immunodeficiency virus type 1 reverse transcriptase (Human immunodeficiency virus 1), query= `CC(C)CC(=O)c1c2c(c3oc(=O)cc(-c4ccccc4)c3c1O)C=CC(C)(C)O2` )
Result string: 124 µM

----------
# Cell death per record follows
Tested on: MT2
METHOD_SUMMARY: Toxicity of compound against human MT-2 cell line at the concentration of 50 uM
Format: functional
Numbers only here, please. The scale is %.

Answered examples (3):
Query string: Request the reported Cell death associated with CC(C)C(=O)c1c2c(c3oc(=O)cc(-c4ccccc4)c3c1O)C[C@@H](C(C)(C)O)O2 [MESUOL CYCLO F]
Result string: 79.5

Query string: I would be grateful if you could share the reported Cell death for CC(=O)Oc1c(C(=O)CC(C)C)c(OC(C)=O)c2c(-c3ccccc3)cc(=O)oc2c1CC=C(C)C [MAMMEISIN DIACETATE] .
Result string: 15.7

Query string: Look up Cell death for this molecule: CC(C)CC(=O)c1c2c(c3oc(=O)cc(-c4ccccc4)c3c1O)C[C@@H](C(C)(C)O)O2 [CYCLOMAMMEISIN]
Result string: 34.1

# context switch: different molecule, same Cell death
Query string: Which Cell death reading was recorded for the molecule CC(C)CC(=O)c1c(O)cc(O)c2c(-c3ccccc3)cc(=O)oc12 [ISODISPAR B] ?
Result string: 17.2

----------
Test system: MT2
METHOD_SUMMARY: Toxicity of compound against human MT-2 cell line at the concentration of 50 uM
Format: functional
Some compounds, each annotated with its measured Cell death.
Return type: number; implicit unit %.

Query string: Query: Cell death; subject: CC(C)=CCc1c(O)c(C(O)CC(C)C)c(O)c2c(-c3ccccc3)cc(=O)oc12 (stereo not drawn)
Result string: 8

Would you kindly look at the next entry?
Query string: Please look up its Cell death: `CC(C)=CCc1c(O)c(C(=O)C(C)C)c2oc(=O)cc(-c3ccccc3)c2c1O`
Result string: 11.5
